procedureDetails: melting temperature; fluorescence melt of hairpins on a sequencing array, two-state fit, raised by 9.35 °C to match UV melts
statedConditions: sodium 0.088 M
So basically: Tm at 50 °C or higher? That is criterion met. Lower than 50 °C? That is criterion not met.

> print(dat)
                          monomersequence          classname
 1  GAAAATACGAAAGTATTC (((..(((....))))))  criterion not met
 2  GAGTGTGGAAACACGTTC ((..(((....)))..))  criterion not met
 3  GTGAACGGAAACGTCCAC (((.(((....))).)))  criterion not met
 4  GCGCAAGGAAACTTGTGC ((.((((....)))).))      criterion met
 5  GCCGCGCGAAAGCACAGC ((.(.((....)).).))  criterion not met
 6  GTGATTGGAAACAATTGC (..((((....))))..)  criterion not met
 7  GCTCAGCGAAAGCGCAGC (((..((....))..)))  criterion not met
 8  GGTTACGAAAGTACAACC ((((((....)))..)))  criterion not met
 9        GATCACATCGTGATC ((((((...))))))      criterion met
10  GTCCAAGGAAACTCGGAC ((((.((....)).))))  criterion not met
11              GCGTGCAGACGC ((((....))))      criterion met
12  GCCTCATCGAAAGATGGC (((..(((....))))))  criterion not met
13  GTCAGAGGAAACTCTGAC (((((((....)))))))      criterion met
14  GGCATGGGAAACCATACC ((.((((....)))).))  criterion not met
15  GTCGACCGAAAGGTTGAC (((.(((....))).)))      criterion met
16        GATCACGGCGTGATC ((((((...))))))      criterion met
17  GGCCTCGAAAGAGATGCC ((((((....)))..)))  criterion not met
18  GGTGGCGAAAGCCAAACC ((((((....)))..)))  criterion not met
19  GATCACGAAAGTGTCATC ((((((....)))..)))  criterion not met
20      GATCTAAGACTAGATC ((((((....))))))  criterion not met
21  GTTTAGTCGAAAGACAAC (((..(((....))))))  criterion not met
22  GCGGCACCGAAAGGTCGC (((..(((....))))))      criterion met

---

procedureDetails: folding enthalpy; higher = less favourable; fluorescence melt of hairpins on a sequencing array, two-state fit
statedConditions: sodium 0.088 M
measurementLabel: folding enthalpy (kcal/mol)

> print(dat)
                          monomersequence  unitname  measuredvalue
 1  GTGATTGGAAACAATTGC (..((((....))))..)  kcal/mol          -20.4
 2  GCTACGCGAAAGCATGGC ((.(.((....)).).))  kcal/mol          -19.7
 3  GGAGACCCGAAAGGGTCC (((..(((....))))))  kcal/mol          -7.91
 4  GACAACGAAAGTTCGGTC ((((((....)))..)))  kcal/mol          -17.7
 5  GTTCATGGAAACATGAGC (.(((((....))))).)  kcal/mol          -23.4
 6  GAGCAGCGAAAGCTTCTC (((.(((....))).)))  kcal/mol          -24.7
 7  GTGAGCGAAAGCTATCAC ((((((....)))..)))  kcal/mol          -18.3
 8  GGCTGGGCGAAAGCCGCC (((..(((....))))))  kcal/mol          -19.6
 9    GCTGGCCGAAAGGCAGC (((.(((....))))))  kcal/mol          -20.6
10    GCTGACGAAAGTCAAGC ((((((....))).)))  kcal/mol          -28.8
11  GTGTACGAAAGTATACAC ((((((....)))..)))  kcal/mol            -22
12  GTAAGCCGAAAGGCCTAC (((.(((....))).)))  kcal/mol          -13.7
13      GACAACGAAAGTTGTC ((((((....))))))  kcal/mol          -24.8
14  GGTTCGGGAAACTGAACC (((((.(....).)))))  kcal/mol          -47.2
15  GGTTGCGAAAGCACTACC ((((((....)))..)))  kcal/mol          -11.9
16    GCACACGAAAGTGATGC ((((((....))).)))  kcal/mol          -33.1
17  CGAACGGAAACGTGGTCG ((((((....)))..)))  kcal/mol          -12.7
18      GATCCTCGAGAGGATC ((((((....))))))  kcal/mol          -42.7
19  GGGTCAGGAAACTGGCTC (.(.(((....))).).)  kcal/mol          -24.5
20  GCATAGCGAAAGCGACGC ((.(.((....)).).))  kcal/mol          -34.1
21      GATCACCAATGTGATC ((((((....))))))  kcal/mol          -35.3
22  GCGCGGCGAAAGCTGGGC ((.(.((....)).).))  kcal/mol          -32.4
23      GATCTACCGCTAGATC ((((((....))))))  kcal/mol          -29.4
24    GATCAACGAAAGTTATC (((.(((....))))))  kcal/mol          -9.84
25  GCGGATGGAAACGTCCGC (((((.(....).)))))  kcal/mol          -45.9
26  GGTTAGGGAAACCTAATC (.(((((....))))).)  kcal/mol          -27.7
27  GTACATGCGAAAGCATAC (((..(((....))))))  kcal/mol          -8.62
28  GGTTATCGAAAGATTACC (((.(((....))).)))  kcal/mol          -31.1
29  GCTATCGGAAACAATAGC (((((.(....).)))))  kcal/mol          -18.3
30  GCACGAGGAAACTCGTAC (.(((((....))))).)  kcal/mol          -12.7
31      GATCGCAGAGGCGATC ((((((....))))))  kcal/mol          -35.8
32  CGTAACGGAAACGTGACG (((.(((....))).)))  kcal/mol            -47
33    GACTGCCGAAAGGCGTC (((.(((....))))))  kcal/mol          -13.8
34  GTCTGAGGAAACTCAGGC (.(((((....))))).)  kcal/mol          -32.2
35  GATACCGGAAACGGCATC (((.(((....))).)))  kcal/mol            -25
36  GACTCCGGAAACGGAATC ((.((((....)))).))  kcal/mol          -19.1
37      GATCGGCAACCCGATC ((((((....))))))  kcal/mol          -38.5
38  GAGCTGGGAAACCGGCTC ((((.((....)).))))  kcal/mol          -38.5
39              GCGATGCCTCGC ((((....))))  kcal/mol          -20.5
40  GTCAACGAAAGTTAGGAC ((((((....)))..)))  kcal/mol          -17.1
41  GCTCTGGGAAACCGGAGC ((((.((....)).))))  kcal/mol          -52.9
42  GTGGACGAAAGTCGACAC ((((((....)))..)))  kcal/mol          -21.8
43      GATCTGGCTACAGATC ((((((....))))))  kcal/mol            -42
44      GATCTCTGTCGAGATC ((((((....))))))  kcal/mol          -37.4
45      GATCGTTCTCACGATC ((((((....))))))  kcal/mol          -40.8
46  GGTATAGGAAACTATGCC ((.((((....)))).))  kcal/mol          -33.1
47              GCGTCAATACGC ((((....))))  kcal/mol          -22.8
48  GGTAACGCGAAAGCGACC (((..(((....))))))  kcal/mol          -14.1
49  GTTATACGAAAGTAAAAC (((.(((....))).)))  kcal/mol          -20.2
50  GAGCAGGGAAACCTGTTC ((.((((....)))).))  kcal/mol          -24.1
